- Tested on: P. falciparum 3D7 growth, pLDH absorbance
- PROTOCOL DESCRIPTION: blood-stage malaria parasite growth potency – strain 3D7, dose response (AID 2305)
Response field label: string, one of T (IC50 strictly below 700 nM) or F.

Solved cases below.
{"columns": ["COMPOUND", "ASSAY TARGET", "ASSIGNED CLASS"],
 "data": [
  ["O=C(NC1CCCCC1)N(Cc1cccc(-c2ccc(CNCc3ccc4c(c3)OCO4)cc2)c1)C1CCN(Cc2ccccc2)CC1", "P. falciparum 3D7 growth, pLDH absorbance", "F"],
  ["CSc1ccc(CN2CCC(NC(=O)c3ccc(-c4cccc(Cl)c4)s3)CC2)cc1", "P. falciparum 3D7 growth, pLDH absorbance", "F"],
  ["O=C(N[C@H]1CCN(Cc2ccc(OCCN3CCCC3)c(Cl)c2)C1)c1ccc(Cl)c(Cl)c1", "P. falciparum 3D7 growth, pLDH absorbance", "F"],
  ["CC(=O)c1ccc(Nc2c(C(N)=O)cnc3cc(-c4c(C)noc4C)ccc23)cc1", "P. falciparum 3D7 growth, pLDH absorbance", "T"],
  ["CCCCC([C@@H](Cc1ccc2ccccc2c1)C(=O)N[C@H](C(=O)NC)C(C)(C)C)N(O)C=O (stereo partly specified)", "P. falciparum 3D7 growth, pLDH absorbance", "T"],
  ["CCOCc1cnc(C)nc1NCC(=O)c1c(C)[nH]c2cc(C)ccc12", "P. falciparum 3D7 growth, pLDH absorbance", "F"],
  ["CC[C@@]1(O)C(=O)OCc2c1cc1n(c2=O)Cc2c-1nc1cc3c(cc1c2CN1CCOCC1)OCO3", "P. falciparum 3D7 growth, pLDH absorbance", "F"],
  ["O=C(NCCCc1ccccc1)c1csc(C2CCCN(C(=O)c3ccc(O)c(-c4ccccc4)c3)C2)n1 (stereo unspecified)", "P. falciparum 3D7 growth, pLDH absorbance", "F"],
  ["COc1c(C2CCN(CCN3CCC(CNC(=O)c4ccc(-c5ccc(C#N)cc5)cc4)CC3)CC2)ccc2c1CCCC2", "P. falciparum 3D7 growth, pLDH absorbance", "T"],
  ["CCc1ccc(CNCC(CCNc2cc(=O)c3ccccc3[nH]2)NCc2cc(Br)cc(Br)c2)o1 (stereo unspecified)", "P. falciparum 3D7 growth, pLDH absorbance", "T"]
]}

Now examine the next entry.
stdin: Determine if O=C(Nc1ccc(OC2CCN(Cc3ccccc3)CC2)c(Cl)c1)c1ccsc1 shows IC50 strictly lower than 700 nM.
stdout: F

====

Measured pIC50 accompanies every entry in the list below.
- System: P. falciparum 3D7 growth, pLDH absorbance
- PROTOCOL DESCRIPTION: blood-stage malaria parasite growth potency – strain 3D7, dose response (AID 2305)
Convention used: pIC50 is expressed as -log10 of the molar concentration.

Solved cases below.
{"columns": ["MOLECULE", "MEASURED"],
 "data": [
  ["Cc1ccccc1C1CCN(C2CCC(NC(=O)c3cc4cc(C(C)C)ccc4[nH]3)CC2)CC1 (stereo not drawn)", 6.16],
  ["Cc1[nH]c2ccc(C#N)cc2c(=O)c1Br", 6.19],
  ["CC(C)NCc1cccc(-c2ccc(NS(=O)(=O)c3cccc4cccnc34)cc2)c1", 5.97],
  ["Nc1c2c(nc3ccc(NC(=O)CCCCCCc4ccccc4)cc13)CCCC2", 6.60],
  ["CC(=O)Nc1ccc(C(=O)Nc2cccc(-c3ccc(-c4nc5c(C)cccc5[nH]4)cc3)c2)cn1", 6.72]
]}

stdin: Can you look up the measured pIC50 of O=S(=O)(Nc1ccc(CCN2CCCCC2CCN2CCCC2)cc1)c1cccc2cccnc12 (stereo not drawn) for me?
stdout: 5.89

stdin: What do you have for COc1ccc(CNC2Cc3ccccc3C2)cc1-c1ccc(S(=O)(=O)NCCN2CCCC2)cc1 ?
stdout: 6.24

stdin: What do you have for Cc1[nH]c(C)c(-c2ccc(Br)cc2)c(=O)c1Br ?
stdout: 6.19

stdin: What do you have for COc1ccc(NC(=O)/C=C/c2ccccc2Cl)cc1OCCN1CCC(NC2CC2)CC1 ?
stdout: 6.08

stdin: What do you have for CCC(=O)N(c1ccccc1)C1CCN(CCCC(NC(=O)Nc2cc(C(F)(F)F)cc(C(F)(F)F)c2)c2ccc(Cl)c(Cl)c2)CC1 (stereo not drawn) ?
stdout: 6.17

stdin: What do you have for FC(F)(F)c1ccc2nc(-c3ccc(-c4ccc(CNCCN5CCNCC5)cc4)s3)[nH]c2c1 ?
stdout: 6.04

stdin: What do you have for CCNC(=O)Nc1cccc(-c2ccc(-c3nc4c(C)cccc4[nH]3)s2)c1 ?
stdout: 6.11
